Molecular target: p97 (Homo sapiens, UniProt P55072)
Sequence (P55072 whole entry): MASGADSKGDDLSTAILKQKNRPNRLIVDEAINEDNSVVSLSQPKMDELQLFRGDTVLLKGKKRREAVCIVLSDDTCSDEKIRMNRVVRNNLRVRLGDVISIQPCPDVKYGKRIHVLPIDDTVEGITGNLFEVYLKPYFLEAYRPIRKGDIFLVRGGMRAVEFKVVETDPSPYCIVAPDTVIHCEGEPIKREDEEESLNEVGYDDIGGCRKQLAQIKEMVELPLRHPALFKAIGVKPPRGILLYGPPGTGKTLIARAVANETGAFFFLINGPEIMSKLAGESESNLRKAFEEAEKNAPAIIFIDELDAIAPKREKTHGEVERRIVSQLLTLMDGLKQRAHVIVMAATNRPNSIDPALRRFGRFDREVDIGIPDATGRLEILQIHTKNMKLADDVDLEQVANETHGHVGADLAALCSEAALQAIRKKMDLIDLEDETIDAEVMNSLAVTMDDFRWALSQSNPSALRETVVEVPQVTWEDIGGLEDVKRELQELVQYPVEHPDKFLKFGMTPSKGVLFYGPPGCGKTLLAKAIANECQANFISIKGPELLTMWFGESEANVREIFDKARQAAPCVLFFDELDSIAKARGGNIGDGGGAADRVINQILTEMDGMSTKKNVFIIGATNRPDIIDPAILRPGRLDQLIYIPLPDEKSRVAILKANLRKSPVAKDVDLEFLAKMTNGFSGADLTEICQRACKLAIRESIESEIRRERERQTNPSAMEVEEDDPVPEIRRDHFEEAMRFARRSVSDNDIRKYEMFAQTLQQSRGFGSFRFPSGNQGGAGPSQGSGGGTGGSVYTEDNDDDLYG
Experiment: P97 ATPase biochemical assay (ADP Glo)
Conditions: 20 nM p97, 20 uM ATP, 37 degC 15 min
pIC50: −log10 of the molar value.
ASSAY_METRIC: pIC50

// solved cases for pIC50 follow
compound="COc1cnc(-n2c(C)cc3c(CN)cccc32)nc1NCc1ccccc1 [Example 37]" measured_result="> 6.00"
compound="COc1cnc(-n2c(CN)cc3c(C(N)=O)cccc32)nc1NCc1ccccc1 [Example 29]" measured_result="> 7.00"
compound="Cc1cc2c(C(N)=O)cccc2n1-c1ncc(C(C)O)c(NCc2ccccc2)n1 (centres unmarked) [Example 34]" measured_result="> 7.52"

Please look at the items below and tell me pIC50 for each one, in order.
1. Cc1cc2c(C(N)=O)cccc2n1-c1ncc(C(F)(F)F)c(NCc2ccccc2)n1 [Example 4]
2. Cc1cnc(-n2c(C)cc3c(C(N)=O)cccc32)nc1NCc1ccccc1 [Example 2]

### Response
> 7.52
> 7.52

// provenance: patent US9868722B2
